System: COLO205 colon adenocarcinoma cells (B-Raf V600E mutation)
method.description: COLO205 cell growth inhibition (ATPlite)
Type: cell-based
condition.context: Homo sapiens, COLO 205, 72 h, 3 days
readout.name: IC50

Some compounds with recorded IC50:
CCC(C)S(=O)(=O)Nc1cccc(C(=O)c2c[nH]c3ncc(-c4cnc(N5CCCC5)nc4)cc23)c1F (centres unmarked) | < 1 µM
CC(C)NS(=O)(=O)Nc1cccc(C(=O)c2c[nH]c3ncc(I)cc23)c1F | > 1 µM
CCN(C)S(=O)(=O)Nc1cccc(C(=O)c2c[nH]c3ncc(-c4cnc(NC5CC5)nc4)cc23)c1F | < 1 µM
COc1cc(-c2cnc3[nH]cc(C(=O)c4c(F)ccc(NS(=O)(=O)N5CCCC5)c4F)c3c2)ccn1 | < 1 µM
CCN(C)S(=O)(=O)Nc1cccc(C(=O)c2c[nH]c3ncc(-c4cnc(C#N)nc4)cc23)c1F | > 1 µM

Record N#Cc1cncc(-c2cnc3[nH]cc(C(=O)c4cccc(NS(=O)(=O)N5CCCC5)c4F)c3c2)c1 ; system COLO205 colon adenocarcinoma cells (B-Raf V600E mutation); IC50 = < 1 µM

Record CC(C)N(C)S(=O)(=O)Nc1cccc(C(=O)c2c[nH]c3ncc(-c4cnc(C5CC5)nc4)cc23)c1F ; system COLO205 colon adenocarcinoma cells (B-Raf V600E mutation); IC50 = > 1 µM

Record CCN(C)S(=O)(=O)Nc1ccc(F)c(C(=O)c2c[nH]c3ncc(-c4ccc(C(C)(C)O)nc4)cc23)c1F ; system COLO205 colon adenocarcinoma cells (B-Raf V600E mutation); IC50 = < 1 µM
